The entries below come with measured IC50 values attached.
- TARGET_UNDER_TEST: CCKA receptor (Rattus norvegicus)
- Sequence (P30551 1-444): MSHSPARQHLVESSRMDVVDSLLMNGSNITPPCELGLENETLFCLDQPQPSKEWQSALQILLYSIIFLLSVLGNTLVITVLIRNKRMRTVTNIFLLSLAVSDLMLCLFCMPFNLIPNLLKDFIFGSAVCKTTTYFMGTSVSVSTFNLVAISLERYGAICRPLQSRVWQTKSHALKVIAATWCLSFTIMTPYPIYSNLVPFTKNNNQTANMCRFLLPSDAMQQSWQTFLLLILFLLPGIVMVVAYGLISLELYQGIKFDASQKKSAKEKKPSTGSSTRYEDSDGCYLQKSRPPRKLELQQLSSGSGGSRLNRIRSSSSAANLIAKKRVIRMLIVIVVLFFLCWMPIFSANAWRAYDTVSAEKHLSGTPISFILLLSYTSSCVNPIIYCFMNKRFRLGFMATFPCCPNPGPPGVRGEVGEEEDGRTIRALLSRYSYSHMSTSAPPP

Previously resolved entries follow.
| COMPOUND | RESULT |
| --- | --- |
| O=C1C=C(Cl)C(O)(c2ccccc2)N1C1CCCC1 (stereo not shown) | 0.36 µM |
| CN1C(=O)C=C(Cl)C1(O)c1ccc(Cl)cc1 (stereo not shown) | > 10 µM |
| O=C1C=C(Cl)C(O)(c2ccccc2)N1C1CC1 (stereo not shown) | 2.5 µM |
| C[C@H](c1ccccc1)N1C(=O)C=C(Cl)C1(O)c1ccccc1 (single isomer, unassigned) [Example 10b] | > 10 µM |
| CCCCCCN1C(=O)C=C(Cl)C1(O)c1ccccc1 (stereo not shown) | > 10 µM |
| CC(C)N1C(=O)C=C(Cl)C1(O)c1ccccc1 (stereo not shown) | > 10 µM |
| CN1C(=O)C=C(Cl)C1(O)c1ccccc1 (stereo not shown) | > 10 µM |
| O=C1C=C(Cl)C(O)(c2ccccc2)N1Cc1ccccc1 (stereo not shown) | > 10 µM |
| O=C1C=C(Cl)C(O)(c2ccc(Cl)cc2)N1C1CC1 (stereo not shown) | 7.5 µM |

Kindly review the next compound as well.
Summary for this compound, C[C@H](c1ccccc1)N1C(=O)C=C(Cl)C1(O)c1ccccc1 (single isomer, unassigned) [Example 10a] : IC50 is > 10 µM

Data credit: patent US8921577B2
